Molecular target: α2β1γ2 GABAA receptor (Homo sapiens, UniProt P18505+P18507+P47869)
Construct: expressed in transfected cells
Sequence (P47869 29-451): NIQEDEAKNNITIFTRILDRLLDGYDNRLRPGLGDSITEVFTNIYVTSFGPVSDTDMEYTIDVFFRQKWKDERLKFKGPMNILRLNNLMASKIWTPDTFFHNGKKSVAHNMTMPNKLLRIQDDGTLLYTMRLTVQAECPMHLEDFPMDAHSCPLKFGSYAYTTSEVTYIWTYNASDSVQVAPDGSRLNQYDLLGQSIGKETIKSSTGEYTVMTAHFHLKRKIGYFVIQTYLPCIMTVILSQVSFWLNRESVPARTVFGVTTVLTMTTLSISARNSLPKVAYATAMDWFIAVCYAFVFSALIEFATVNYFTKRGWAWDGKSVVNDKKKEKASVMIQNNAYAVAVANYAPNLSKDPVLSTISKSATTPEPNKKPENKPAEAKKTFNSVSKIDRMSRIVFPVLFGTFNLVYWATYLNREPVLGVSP
Sequence (P18505 26-474): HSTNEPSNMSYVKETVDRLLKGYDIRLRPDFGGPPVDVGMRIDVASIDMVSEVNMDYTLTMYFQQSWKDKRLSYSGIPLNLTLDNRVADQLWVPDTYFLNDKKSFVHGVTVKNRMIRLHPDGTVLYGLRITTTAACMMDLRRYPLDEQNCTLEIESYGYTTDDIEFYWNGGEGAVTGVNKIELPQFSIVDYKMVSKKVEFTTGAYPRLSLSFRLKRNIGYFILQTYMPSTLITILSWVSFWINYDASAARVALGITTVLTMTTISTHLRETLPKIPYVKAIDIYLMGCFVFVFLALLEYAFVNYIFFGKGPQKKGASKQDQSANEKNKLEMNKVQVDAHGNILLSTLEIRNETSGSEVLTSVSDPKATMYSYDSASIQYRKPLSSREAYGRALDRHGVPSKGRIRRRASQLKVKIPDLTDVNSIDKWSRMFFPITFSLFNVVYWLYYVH
Sequence (P18507 40-475): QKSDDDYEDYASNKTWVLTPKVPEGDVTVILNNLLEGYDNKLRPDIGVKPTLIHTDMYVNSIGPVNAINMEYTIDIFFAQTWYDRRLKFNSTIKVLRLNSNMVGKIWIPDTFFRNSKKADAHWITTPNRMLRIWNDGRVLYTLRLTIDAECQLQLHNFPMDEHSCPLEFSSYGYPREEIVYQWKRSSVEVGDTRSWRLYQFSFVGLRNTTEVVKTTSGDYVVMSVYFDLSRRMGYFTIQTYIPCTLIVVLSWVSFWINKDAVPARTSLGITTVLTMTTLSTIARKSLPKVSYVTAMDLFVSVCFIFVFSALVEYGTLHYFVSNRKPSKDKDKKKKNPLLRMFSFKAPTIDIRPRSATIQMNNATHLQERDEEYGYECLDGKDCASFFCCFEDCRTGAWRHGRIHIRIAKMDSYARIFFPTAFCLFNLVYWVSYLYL
Experiment: FLIPR modulation of GABAA receptor subtype in expressing cells
Format: cell-based
Conditions: cells exposed to GABA plus compound, — = value not measurable
VALUE KIND: EC50 (nM)

1. C[C@@]1(O)CC[C@@]2(C)[C@@H](CC[C@@H]3[C@@H]2CC[C@]2(C)[C@@H](C(=O)Cn4cc(C#N)cn4)CC[C@@H]32)C1 [CV-10155] ... 253

###

Target: α4β3γ2 GABAA receptor (Homo sapiens, UniProt P18507+P28472+P48169)
Construct: expressed in transfected cells
Sequence (P48169 36-554): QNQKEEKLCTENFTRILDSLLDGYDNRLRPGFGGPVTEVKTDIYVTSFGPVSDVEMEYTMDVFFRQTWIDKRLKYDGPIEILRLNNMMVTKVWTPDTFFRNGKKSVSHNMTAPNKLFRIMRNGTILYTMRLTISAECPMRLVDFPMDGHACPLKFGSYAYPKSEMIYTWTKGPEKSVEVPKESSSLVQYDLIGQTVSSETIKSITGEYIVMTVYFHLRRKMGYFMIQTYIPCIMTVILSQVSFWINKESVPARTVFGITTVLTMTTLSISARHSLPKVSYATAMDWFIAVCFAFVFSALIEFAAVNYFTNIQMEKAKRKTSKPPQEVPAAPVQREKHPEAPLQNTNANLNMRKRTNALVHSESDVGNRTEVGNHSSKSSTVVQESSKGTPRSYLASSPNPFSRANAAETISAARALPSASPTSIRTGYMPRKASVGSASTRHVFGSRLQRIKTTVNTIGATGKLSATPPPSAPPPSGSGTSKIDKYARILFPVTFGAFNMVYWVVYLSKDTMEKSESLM
Sequence (P28472 26-473): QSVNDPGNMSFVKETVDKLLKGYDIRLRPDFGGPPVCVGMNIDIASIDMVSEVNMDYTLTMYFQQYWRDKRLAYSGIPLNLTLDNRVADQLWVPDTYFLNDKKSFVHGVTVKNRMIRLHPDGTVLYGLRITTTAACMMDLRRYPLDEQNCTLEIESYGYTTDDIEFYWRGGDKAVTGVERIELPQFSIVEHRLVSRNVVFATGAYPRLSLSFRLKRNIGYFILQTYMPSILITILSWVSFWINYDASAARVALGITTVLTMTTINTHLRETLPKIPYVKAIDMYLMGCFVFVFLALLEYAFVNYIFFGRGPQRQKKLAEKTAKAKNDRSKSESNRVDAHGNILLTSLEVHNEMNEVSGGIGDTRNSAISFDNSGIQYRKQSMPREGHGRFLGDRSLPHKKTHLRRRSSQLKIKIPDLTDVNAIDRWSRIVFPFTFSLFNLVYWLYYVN
Sequence (P18507 40-475): as the sequence (P18507 40-475) above
Assay: FLIPR modulation of GABAA receptor subtype in expressing cells
Type: cell-based
Conditions: cells exposed to GABA plus compound, — = value not measurable
VALUE KIND: EC50 (µM)

1. C[C@@]1(O)CC[C@@]2(C)[C@@H](CC[C@@H]3[C@@H]2CC[C@]2(C)[C@@H](C(=O)Cn4cc(C#N)cn4)CC[C@@H]32)C1 ... 1.33

Reference for the values: patent US10857163B1
